Some molecules, each annotated with its measured zone of inhibition at 20 µg/mL.
- System: Candida albicans
- assayProtocol: Antifungal activity against Candida albicans at 20 ug/ml by paper disc method
- Assay type: functional
- assayContext: read-out: IZ
Give a bare numeral; the unit mm is implied.

// worked examples, zone of inhibition at 20 µg/mL included
{"molecule": "COc1ccc(Cl)c(-c2nnc3sc(-c4ccnc(Cl)c4)nn23)c1", "zone of inhibition at 20 µg/mL (mm)": 13.7}
{"molecule": "COc1ccc(Cc2nnc3sc(-c4cc(-c5ccccc5)nc5ccccc45)nn23)cc1OC", "zone of inhibition at 20 µg/mL (mm)": 11.4}
{"molecule": "COc1ccc(Cl)c(-c2nnc3sc(Cc4c[nH]c5ccc(OC)cc45)nn23)c1", "zone of inhibition at 20 µg/mL (mm)": 9.2}
{"molecule": "COc1ccc(Cl)c(-c2nnc3sc(Cc4c(C)[nH]c5ccc(OC)cc45)nn23)c1", "zone of inhibition at 20 µg/mL (mm)": 8.72}
{"molecule": "COc1ccc(Cc2nnc3sc(-c4cc(C)nc5ccccc45)nn23)cc1OC", "zone of inhibition at 20 µg/mL (mm)": 12}
{"molecule": "COc1ccc(Cc2nnc3n2NC(c2ccco2)S3)cc1OC (stereo not drawn)", "zone of inhibition at 20 µg/mL (mm)": 10.4}
{"molecule": "COc1ccc(Cl)c(-c2nnc3sc(-c4ccnc5ccccc45)nn23)c1", "zone of inhibition at 20 µg/mL (mm)": 13.9}

Could you now consider this next molecule?
Just so you know, measured zone of inhibition at 20 µg/mL for Cc1occc1-c1nnc(S)n1N came out at 6.82
